Value source: patent US10077261B2

- study.system: hFASN enzyme (full length) (Homo sapiens, UniProt P49327)
- Construct: 10 μL hFASN enzyme (full length, 300 ng, purified in house); made in house
- Sequence (P49327 whole entry): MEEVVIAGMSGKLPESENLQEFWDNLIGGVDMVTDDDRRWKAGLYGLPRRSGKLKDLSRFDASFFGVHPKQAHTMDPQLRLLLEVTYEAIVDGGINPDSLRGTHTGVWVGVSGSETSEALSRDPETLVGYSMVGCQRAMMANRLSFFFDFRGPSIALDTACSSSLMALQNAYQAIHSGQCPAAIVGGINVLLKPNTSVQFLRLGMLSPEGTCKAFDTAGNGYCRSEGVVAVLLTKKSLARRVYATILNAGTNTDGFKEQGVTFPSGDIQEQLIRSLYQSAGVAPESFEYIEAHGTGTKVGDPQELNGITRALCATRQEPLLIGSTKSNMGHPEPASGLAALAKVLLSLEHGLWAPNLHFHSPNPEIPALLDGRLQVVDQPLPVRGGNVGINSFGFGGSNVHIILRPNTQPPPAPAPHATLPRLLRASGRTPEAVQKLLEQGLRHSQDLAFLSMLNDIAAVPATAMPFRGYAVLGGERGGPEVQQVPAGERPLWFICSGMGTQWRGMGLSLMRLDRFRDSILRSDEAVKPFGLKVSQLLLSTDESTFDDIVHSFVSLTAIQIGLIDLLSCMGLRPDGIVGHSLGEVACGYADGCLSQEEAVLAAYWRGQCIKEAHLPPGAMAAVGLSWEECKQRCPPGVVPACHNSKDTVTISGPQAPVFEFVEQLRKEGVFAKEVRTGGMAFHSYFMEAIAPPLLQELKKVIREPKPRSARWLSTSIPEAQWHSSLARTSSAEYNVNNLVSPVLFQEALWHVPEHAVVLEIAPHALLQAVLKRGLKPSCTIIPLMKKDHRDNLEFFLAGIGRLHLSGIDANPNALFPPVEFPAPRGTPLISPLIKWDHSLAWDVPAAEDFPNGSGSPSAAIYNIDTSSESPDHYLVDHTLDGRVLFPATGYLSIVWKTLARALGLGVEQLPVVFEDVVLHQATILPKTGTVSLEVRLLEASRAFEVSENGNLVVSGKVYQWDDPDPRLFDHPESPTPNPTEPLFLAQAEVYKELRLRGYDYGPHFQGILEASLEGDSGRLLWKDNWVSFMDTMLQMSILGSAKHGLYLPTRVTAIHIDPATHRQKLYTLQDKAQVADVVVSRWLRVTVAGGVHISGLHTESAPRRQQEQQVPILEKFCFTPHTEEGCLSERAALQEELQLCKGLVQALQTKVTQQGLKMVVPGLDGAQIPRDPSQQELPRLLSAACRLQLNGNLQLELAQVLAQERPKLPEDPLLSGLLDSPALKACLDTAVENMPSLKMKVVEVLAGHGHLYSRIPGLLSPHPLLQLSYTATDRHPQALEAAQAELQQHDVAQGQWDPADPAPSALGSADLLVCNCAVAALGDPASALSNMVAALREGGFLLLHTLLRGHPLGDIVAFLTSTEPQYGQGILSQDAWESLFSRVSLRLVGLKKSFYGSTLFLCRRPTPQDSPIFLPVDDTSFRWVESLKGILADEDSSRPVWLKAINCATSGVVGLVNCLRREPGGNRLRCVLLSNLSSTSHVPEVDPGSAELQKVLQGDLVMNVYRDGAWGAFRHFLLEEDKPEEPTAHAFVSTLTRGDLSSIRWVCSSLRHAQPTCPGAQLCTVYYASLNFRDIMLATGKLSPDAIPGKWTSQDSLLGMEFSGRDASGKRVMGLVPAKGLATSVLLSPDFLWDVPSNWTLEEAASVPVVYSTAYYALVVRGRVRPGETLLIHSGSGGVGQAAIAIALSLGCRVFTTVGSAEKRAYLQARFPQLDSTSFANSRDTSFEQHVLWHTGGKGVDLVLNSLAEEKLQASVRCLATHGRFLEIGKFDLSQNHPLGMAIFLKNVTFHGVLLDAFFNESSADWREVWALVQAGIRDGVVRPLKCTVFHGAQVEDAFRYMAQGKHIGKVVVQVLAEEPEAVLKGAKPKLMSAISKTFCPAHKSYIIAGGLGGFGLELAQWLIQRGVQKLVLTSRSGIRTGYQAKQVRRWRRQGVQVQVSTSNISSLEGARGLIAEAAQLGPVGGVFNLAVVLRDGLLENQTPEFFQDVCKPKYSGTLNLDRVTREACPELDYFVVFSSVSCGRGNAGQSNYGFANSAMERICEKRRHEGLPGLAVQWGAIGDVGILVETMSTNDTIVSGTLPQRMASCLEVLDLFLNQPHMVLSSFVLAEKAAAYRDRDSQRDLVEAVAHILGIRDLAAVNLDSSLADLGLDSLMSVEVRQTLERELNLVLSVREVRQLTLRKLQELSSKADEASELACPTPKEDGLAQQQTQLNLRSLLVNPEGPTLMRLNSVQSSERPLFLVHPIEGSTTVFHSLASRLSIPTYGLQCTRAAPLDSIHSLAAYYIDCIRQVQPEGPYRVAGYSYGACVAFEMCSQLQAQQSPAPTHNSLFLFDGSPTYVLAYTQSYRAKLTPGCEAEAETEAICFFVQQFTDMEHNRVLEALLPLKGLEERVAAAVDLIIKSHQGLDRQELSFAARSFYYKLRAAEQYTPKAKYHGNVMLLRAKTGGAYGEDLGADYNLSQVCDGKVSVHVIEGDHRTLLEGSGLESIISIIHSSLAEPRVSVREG
- protocol.text: Fatty Acid Synthase (FASN) inhibition scintillation proximity assay
- Type: biochemical
- condition.details: read-out: Human FASN % inhibition @ 10 μM, 10 μM test compound
- Method: In this assay, inhibition of FASN activity is measured using ^3H-acetyl-CoA and malonyl-CoA as substrates. ^3H-Acetyl CoA is converted to ^3H-palmitate through a series of reactions by the FASN protein, which contains 7 functional domains and carries out 7 enzymatic reactions to ultimately produce ^3H-palmitate. The assay principle is based upon the fact that ^3H-acetyl-CoA is hydrophilic and the end product, ^3H-palmitate is hydrophobic. […]
value.type: inhibition at 10 µM (%)

compound: CC(=O)N1CCC2(CC1)N=C(c1ccc(C3=CC4CCN(C(C)=O)CC4C=C3)cc1)N(C[C@@H]1CCN(C(=O)C3CC3)C1)C2=O (some centres unmarked)
unit: %
inhibition at 10 µM: 16

compound: Cn1cnc2cc(-c3ccc(C4=NC5(CC5)C(=O)N4CC4CN(C(=O)C5CC5)C4)cc3)ccc21
unit: %
inhibition at 10 µM: 98

compound: N#Cc1ccc2nc(-c3ccc(C4=NC5(CC5)C(=O)N4CC4CN(C(=O)C5CC5)C4)c(F)c3)sc2c1
unit: %
inhibition at 10 µM: 104

I: N#Cc1cccc(-c2ccc(C3=NC4(CC4)C(=O)N3C[C@@H]3CCN(C(=O)C4CC4)C3)cc2)c1
II: Cn1nccc1-c1ccc(C2=NC3(CC3)C(=O)N2CC2CCN(C(=O)C3CC3)CC2)cc1
Which entry has a larger number for inhibition at 10 µM, I or II ? Pick one and reply with its label.
I
(I: 81.5%, II: 5.1%)

1: Cc1ccc2c(-c3ccc(C4=NC5(CC5)C(=O)N4CC4CN(C(=O)C5(C)CC5)C4)c(C)c3)cccc2n1
2: Cn1cc(-c2ccc(-c3ccc(C4=NC5(CCOCC5)C(=O)N4CC4CN(C(=O)N5CCCC5)C4)cc3)cc2)cn1
3: Cn1ncc2cc(-c3ccc(C4=NC5(CCOC5)C(=O)N4CC4CN(C(=O)C(F)(F)F)C4)cc3)ccc21 (centres unmarked)
Could you please order the items by inhibition at 10 µM, going from the lowest number to the highest? Give the order by naming the labels one after another as requested.
3, 2, 1

---

- study.system: hFASN enzyme (full length) (Homo sapiens)
- Construct: 10 μL hFASN enzyme (full length, 300 ng, purified in house); made in house
- protocol.text: Fatty Acid Synthase (FASN) inhibition scintillation proximity assay
- Format: biochemical
- condition.details: read-out: Human FASN pIC50 (converted)
value.type: IC50 (nM)

molecule: CC1(C(=O)N2CC(CN3C(=O)C4(CC4)N=C3c3ccc(-c4ccc5cc(F)ccc5c4)cc3F)C2)CC1 [compound 359]
IC50 (nM): 39.8

1: COc1cccc(-c2ccc(C3=NC4(CC4)C(=O)N3C[C@@H]3CCN(C(=O)C4CC4)C3)cc2)c1 [compound 113]
2: O=C([C@H]1CCCO1)N1CC[C@@H](CN2C(=O)C3(CCOCC3)N=C2c2ccc(-c3ccc4cccnc4c3)cc2)C1 [compound 663]
Hi there! Just curious which has the higher IC50 between 1 and 2 . Indicate which entry you chose by stating its label.
1
(1: 117 nM, 2: 64.6 nM)

---

- Test system: LNCaP-Vancouver prostate cells
- protocol.text: In vitro LNCaP Vancouver prostate cell proliferation assay in lipid reduced medium
- Type: cell-based
- condition.details: read-out: pIC50 LNCaP_Vancouver prostate cell (converted)
- Procedure: LNCaP-Vancouver prostate cells were obtained from the Vancouver Prostate Cancer Centre. Cells were maintained in RPMI-1640, 10% Fetal Calf Serum (FCS, Hyclone), 2 mM glutamine and 50 μg/ml Gentamicin. […] pIC50 values were calculated as follows. […]
value.type: IC50 (nM)

Some solved cases for reference:
compound: COC(=O)N1CC2(C1)N=C(c1ccc(-c3ccc4occc4c3)cc1)N(C[C@@H]1CCN(C(=O)C3CC3)C1)C2=O [compound 733]
study.system: LNCaP-Vancouver prostate cells
value: 3310

compound: COc1cccc2ccc(-c3ccc(C4=NC5(CC5)C(=O)N4CC4CN(C(=O)C5CC5)C4)c(F)c3)cc12 [compound 380]
study.system: LNCaP-Vancouver prostate cells
value: 1150

compound: Cn1ncc2cc(-c3ccc(C4=NC5(CC5)C(=O)N4C[C@@H]4CCN(C(=O)C5CC5)C4)cn3)ccc21 [compound 421]
study.system: LNCaP-Vancouver prostate cells
value: 1290

compound: Cc1cc2cc(-c3ccc(C4=NC5(CC5)C(=O)N4C[C@@H]4CCN(C(=O)C5CC5)C4)cc3)ccc2o1 [compound 294]
study.system: LNCaP-Vancouver prostate cells
value: 2040

compound: COC(=O)N1CC2(C1)N=C(c1ccc(-c3ccc(-c4cnn(C)c4)cc3)cc1)N(C[C@@H]1CCN(C(=O)C3CC3)C1)C2=O [compound 725]
study.system: LNCaP-Vancouver prostate cells
value: 1660

A: Cc1cc(-c2ccc3c(cnn3C)c2)ccc1C1=NC2(CC2)C(=O)N1CC1CN(C(=O)N(C)C)C1 [compound 488]
B: Cn1cc(-c2ccc(-c3ccc(C4=NC5(CCOCC5)C(=O)N4C[C@@H]4CCN(C(=O)[C@H]5CCCO5)C4)cc3)cc2)cn1 [compound 657]
Hi there, can you help? I need to know whether A or B has lower measured IC50. // output: label of the selected item
A

---

- study.system: hFASN enzyme (full length) (Homo sapiens, UniProt P49327)
- Construct: 10 μL hFASN enzyme (full length, 300 ng, purified in house); made in house
- protocol.text: Fatty Acid Synthase (FASN) inhibition scintillation proximity assay
- Assay type: biochemical
- condition.details: read-out: Human FASN pIC50 (converted)
value.type: IC50 (µM)

Study these solved cases before continuing.
compound: COC(=O)N1CCC2(CC1)N=C(c1ccc(-c3ccc4occc4c3)cc1)N(C[C@@H]1CCN(C(=O)C3CC3)C1)C2=O
value: 0.148
//
compound: Cc1ccc(-c2ccc(C3=NC4(CC4)C(=O)N3C[C@@H]3CCN(C(=O)C4CC4)C3)cc2)cc1
value: 0.0741
//
compound: Cc1cc(-c2cccc(S(C)(=O)=O)c2)ccc1C1=NC2(CC2)C(=O)N1C[C@@H]1CCN(C(=O)C2CC2)C1
value: 8.32
//
compound: O=C(C1CC1)N1CC(CN2C(=O)C3(CC3)N=C2c2ccc(-c3ccc(Cl)cc3F)cc2F)C1
value: 0.174

A: Cc1nc2cc(-c3ccc(C4=NC5(CC5)C(=O)N4CC4CN(C(=O)C5CC5)C4)cc3)ccc2s1
B: Cc1cc(-c2ccc3cc[nH]c3c2)ccc1C1=NC2(CC2)C(=O)N1CC1CN(C(=O)C2CC2)C1
Hi there, can you help? I need to know whether A or B has lower measured IC50. Provide the label of your selected option as the answer.
B
(B: 0.0309 µM, A: 0.245 µM)

A: Cc1cc(-c2ccc3ccc(C#N)nc3c2)ccc1C1=NC2(CC2)C(=O)N1CC1CN(C(=O)C2(C)CC2)C1
B: O=C(C1CC1)N1CC[C@@H](CN2C(=O)C3(CC3)N=C2c2ccc(-c3cccc(C(F)(F)F)c3)cc2)C1
C: COc1ccc(-c2ccc(C3=NC4(CC4)C(=O)N3C[C@@H]3CCN(C(=O)C4CC4)C3)cc2)cc1
D: CC1(C(=O)N2CC[C@@H](CN3C(=O)C4(CCCC4)N=C3c3ccc(-c4ccc5occc5c4)cc3)C2)CC1
E: COC(=O)N1CC2(C1)N=C(c1ccc(-c3ccc4cccnc4c3)cc1)N(C[C@@H]1CCN(C(=O)[C@H]3CCCO3)C1)C2=O
List by increasing IC50. Write out the labels following the order that was asked for.
D, C, E, B, A
(D: 0.0282 µM, C: 0.0676 µM, E: 0.1 µM, B: 0.646 µM, A: 1.12 µM)

A: N#Cc1ccc2ccc(-c3ccc(C4=NC5(CC5)C(=O)N4CC4CN(C(=O)C5CC5)C4)c(F)c3)cc2c1
B: COC(=O)N1CC2(C1)N=C(c1ccc(-c3ccc4c(cnn4C)c3)cc1)N(C[C@@H]1CCN(C(=O)N3CCCC3)C1)C2=O
C: Cc1cc(-c2ccc3ccc(C(N)=O)nc3c2)ccc1C1=NC2(CC2)C(=O)N1CC1CN(C(=O)C2(C)CC2)C1
D: O=C(C1CC1)N1CC[C@@H](CN2C(=O)C3(CCCC3)N=C2c2ccc(-c3ccc4cccnc4c3)cc2F)C1
E: O=C(C1CC1)N1CC[C@@H](CN2C(=O)C3(CC3)N=C2c2ccc(-c3cccc4[nH]ncc34)c(F)c2)C1
// sort entries: IC50, high to low List the labels, following the order given in the request.
B, C, A, E, D

P: Cc1cc(-c2ccc3cn(C)nc3c2)ccc1C1=NC2(CC2)C(=O)N1CC1CN(C(=O)C2(C)CC2)C1
Q: Cn1ncc2cc(-c3ccc(C4=NC5(CCOC5)C(=O)N4CC4CN(C(=O)C5CC5)C4)cc3)ccc21 (stereo not shown)
For the pair P and Q , which member has the lower IC50 number? Your answer should be the label attached to the chosen record.
P
